assay: Human HepG2 cell viability assay in 384 well format; assay type: toxicity, cell-based; parameters: dose 125 nL, time 70.5 hour; concentration not given beside the values; conditions: HepG2 cells, read-out: Inhibition
Assignment: determine reported cytotoxicity at 70.5 h for the given compounds.
One number for each entry, in %.

Some compounds with recorded cytotoxicity at 70.5 h:
Compound	cytotoxicity at 70.5 h / %
Cc1nccn1-c1ccccc1CNC(=O)c1cn(CCN)nn1	1.29
COc1ccc(C2CCCN2C(=O)NCCNc2ncccn2)cc1 (configuration not stated)	-4.74
CCOc1cccc(C(=O)N2CCC(c3n[nH]c(C4CC4)n3)CC2)c1	-8.11

Go through the list and state cytotoxicity at 70.5 h for each entry.
1. CC(C)c1cc(NC(=O)CN2CCCC2Cn2cncn2)on1 (configuration not stated)
2. Cc1noc(CN2C[C@H]3CC[C@@H]2CN(C2Cc4ccccc4C2)C3)n1
3. CCc1nc(CN(Cc2cccs2)CC2CCCO2)no1 (configuration not stated)
4. Cc1nc(-c2ccc(S(=O)(=O)N3CCC=C(F)C3)cc2)co1
5. Cc1nn(C)c(C)c1OCC(=O)NCc1cccc(CO)c1
6. Cc1ccsc1CN(C)C(=O)C1CCCN(C(N)=O)C1 (configuration not stated)
7. COCCN1CCN(Cc2nc(-c3ccoc3)no2)CC1

a:
1. -9.97
2. 4.75
3. 1.39
4. -9.72
5. 2.69
6. -8.56
7. -4.32

Give cytotoxicity at 70.5 h for all compounds that follow.
1. Cc1ccc(N2CCCc3sc(C(=O)NCC4CCCO4)nc32)nn1 (configuration not stated)
2. Cc1cc(CN2CCCC(C)(CO)C2)ccc1F (configuration not stated)

a:
-8.45
-6.61
